# Target Under Test: T1, CD3 on human T cells (H9 cells, ATCC HTB-176) (human)
# T1 construct: whole, on cells; The target is printed as 'human T cells'
# T1 sequence (P07766 23-207, chain 1 of 3): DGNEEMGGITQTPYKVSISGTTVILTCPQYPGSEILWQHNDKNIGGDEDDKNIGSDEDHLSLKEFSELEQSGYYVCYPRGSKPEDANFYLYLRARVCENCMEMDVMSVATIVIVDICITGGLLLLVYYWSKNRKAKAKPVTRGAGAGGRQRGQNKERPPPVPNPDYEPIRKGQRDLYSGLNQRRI
# T1 sequence (P04234 22-171, chain 2 of 3, further chain): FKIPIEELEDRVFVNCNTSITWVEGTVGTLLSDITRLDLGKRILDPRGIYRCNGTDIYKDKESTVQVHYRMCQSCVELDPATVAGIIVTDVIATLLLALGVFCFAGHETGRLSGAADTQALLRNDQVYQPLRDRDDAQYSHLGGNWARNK
# T1 sequence (P09693 23-182, chain 3 of 3, further chain): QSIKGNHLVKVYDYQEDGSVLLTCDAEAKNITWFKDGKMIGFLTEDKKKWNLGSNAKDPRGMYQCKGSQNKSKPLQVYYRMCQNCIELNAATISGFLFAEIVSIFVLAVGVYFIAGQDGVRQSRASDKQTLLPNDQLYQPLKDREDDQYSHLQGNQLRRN
# Experimental Protocol: flow cytometry on H9 cells, 1 µg antibody per 2x10^5 cells in 100 µl, PE anti-human IgG detection
Measurement Kind: Mean : PE-A

D07 (antibody, human IgG1, lambda, L234A L235A, V domains shown, humanized SP34 IgG1, lambda; also called D7) VH: EVQLVESGGGLVQPGGSLKLSCAASGFTFNTYAMNWVRQASGKGLEWVGRIRSKYNNYATYYADSVKDRFTISRDDSQSTLYLQMNSLKTEDTAVYYCVRHGNFGNSYVSWFAYWGQGTLVTVSS VL: QAVVTQEPSLTVSPGGTVTLTCRSSTGAVTTSNYANWFQQKPGQAPRGLIGGTNKRAPWTPARFSGSLLGGKAALTLSGAQPEDEAEYYCALWYSNLWVFGGGTKLTVLG ... 3770
A08 (antibody, human IgG1, lambda, L234A L235A, V domains shown, humanized SP34 IgG1, lambda; also called A8) VH: EVQLVESGGGLVQPGGSLKLSCAASGFTFNTYAMNWVRQASGKGLEWVGRIRSKYNNYATYYADSVKDRFTISRDDSKNTAYLQMNSLKTEDTAVYYCVRHGNFGNSYVSWFAYWGQGTLVTVSS VL: QAVVTQEPSLTVSPGGTVTLTCRSSTGAVTTSNYANWFQQKPGQAPRGLIGGTNKRAPWTPARFSGSLLGDKAALTLSGAQPEDEAEYYCALWYSNLWVFGGGTKLTVLG ... 3080
D08 (antibody, human IgG1, lambda, L234A L235A, V domains shown, humanized SP34 IgG1, lambda; also called D8) VH: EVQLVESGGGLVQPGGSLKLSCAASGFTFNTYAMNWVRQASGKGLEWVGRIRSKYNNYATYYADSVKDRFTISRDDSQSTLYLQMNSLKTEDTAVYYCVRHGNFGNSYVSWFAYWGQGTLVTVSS VL: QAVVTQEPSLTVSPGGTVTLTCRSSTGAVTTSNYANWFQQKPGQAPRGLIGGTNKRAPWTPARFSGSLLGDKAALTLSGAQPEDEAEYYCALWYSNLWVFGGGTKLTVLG ... 4220
E16 (antibody, human IgG1, lambda, L234A L235A, V domains shown, humanized SP34 IgG1, lambda) VH: EVQLVESGGGLVQPGGSLKLSCAASGFTFNTYAMNWVRQASGKGLEWVARIRSKYNNYATYYADSVKDRFTISRDDSKNTAYLQMNSLKTEDTAVYYCVRHGNFGNSYVSWFAYWGQGTLVTVSS VL: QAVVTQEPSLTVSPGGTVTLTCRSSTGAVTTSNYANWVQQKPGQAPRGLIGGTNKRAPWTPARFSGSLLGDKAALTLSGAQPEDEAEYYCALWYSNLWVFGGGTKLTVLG ... 11100
A07 (antibody, human IgG1, lambda, L234A L235A, V domains shown, humanized SP34 IgG1, lambda; also called A7) VH: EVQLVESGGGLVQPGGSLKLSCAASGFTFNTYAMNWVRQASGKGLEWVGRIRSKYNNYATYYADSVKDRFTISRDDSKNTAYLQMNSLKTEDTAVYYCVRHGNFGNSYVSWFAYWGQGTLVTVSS VL: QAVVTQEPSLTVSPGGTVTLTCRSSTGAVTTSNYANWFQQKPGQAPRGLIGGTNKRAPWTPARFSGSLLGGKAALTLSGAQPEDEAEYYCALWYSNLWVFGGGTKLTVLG ... 4310

Consider the following items and state reported Mean : PE-A for each.
1. B16 (antibody, human IgG1, lambda, L234A L235A, V domains shown, humanized SP34 IgG1, lambda) VH: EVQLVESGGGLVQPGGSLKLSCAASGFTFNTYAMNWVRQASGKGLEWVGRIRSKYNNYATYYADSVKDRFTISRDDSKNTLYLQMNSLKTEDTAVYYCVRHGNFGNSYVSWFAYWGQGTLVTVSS VL: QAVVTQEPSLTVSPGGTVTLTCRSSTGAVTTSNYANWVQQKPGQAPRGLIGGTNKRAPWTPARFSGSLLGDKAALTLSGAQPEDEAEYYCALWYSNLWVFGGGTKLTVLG
2. E15 (antibody, human IgG1, lambda, L234A L235A, V domains shown, humanized SP34 IgG1, lambda) VH: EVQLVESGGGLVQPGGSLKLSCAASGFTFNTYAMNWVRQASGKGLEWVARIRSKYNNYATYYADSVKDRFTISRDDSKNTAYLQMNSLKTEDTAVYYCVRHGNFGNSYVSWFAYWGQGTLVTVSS VL: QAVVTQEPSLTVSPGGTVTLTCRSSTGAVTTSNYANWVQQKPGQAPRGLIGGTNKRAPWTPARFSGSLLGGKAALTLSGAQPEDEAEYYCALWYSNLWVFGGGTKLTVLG

output:
16800
12800

Consider the following items and state reported Mean : PE-A for each.
1. H16 (antibody, human IgG1, lambda, L234A L235A, V domains shown, humanized SP34 IgG1, lambda) VH: EVQLVESGGGLVQPGGSLKLSCAASGFTFNTYAMNWVRQASGKGLEWVARIRSKYNNYATYYADSVKDRFTISRDDSQSTLYLQMNSLKTEDTAVYYCVRHGNFGNSYVSWFAYWGQGTLVTVSS VL: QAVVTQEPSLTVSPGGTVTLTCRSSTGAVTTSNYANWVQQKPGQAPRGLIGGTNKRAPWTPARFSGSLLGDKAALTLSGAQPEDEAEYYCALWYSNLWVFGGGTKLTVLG
2. C07 (antibody, human IgG1, lambda, L234A L235A, V domains shown, humanized SP34 IgG1, lambda; also called C7) VH: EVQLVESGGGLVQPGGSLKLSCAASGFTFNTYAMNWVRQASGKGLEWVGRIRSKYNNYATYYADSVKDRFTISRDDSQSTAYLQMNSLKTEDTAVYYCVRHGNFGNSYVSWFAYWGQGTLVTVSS VL: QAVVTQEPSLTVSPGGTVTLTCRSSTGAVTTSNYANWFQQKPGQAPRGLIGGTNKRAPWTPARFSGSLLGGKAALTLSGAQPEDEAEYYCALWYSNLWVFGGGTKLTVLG
3. G16 (antibody, human IgG1, lambda, L234A L235A, V domains shown, humanized SP34 IgG1, lambda) VH: EVQLVESGGGLVQPGGSLKLSCAASGFTFNTYAMNWVRQASGKGLEWVARIRSKYNNYATYYADSVKDRFTISRDDSQSTAYLQMNSLKTEDTAVYYCVRHGNFGNSYVSWFAYWGQGTLVTVSS VL: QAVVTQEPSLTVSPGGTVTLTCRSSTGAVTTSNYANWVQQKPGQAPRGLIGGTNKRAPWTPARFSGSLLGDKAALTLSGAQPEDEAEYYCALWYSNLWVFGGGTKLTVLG

output:
[9350, 4620, 10300]
